assay summary: Metabolic stability in mouse liver microsomes assessed as parent compound remaining at 0.5 uM incubated for 10 mins by LC-MS/MS analysis
Format: ADME, Microsome
experimental setup: read-out: Stability
reported endpoint: remaining at 10 min, 0.5 µM (%)
Give bare numbers, in %.

// known answers, use as guide
compound=O=C(Nc1cnccc1N1CCOCC1)c1ccnn2cc(-c3ccccc3)nc12 value_measured=9
compound=O=C(Nc1cnccc1-c1ccc(F)cc1)c1ccnn2cc(-c3ccccc3)nc12 value_measured=92
compound=O=C(Nc1cnccc1-c1ccccc1)c1ccnn2cc(-c3ccccc3)nc12 value_measured=83
compound="CC1CN(c2ccncc2NC(=O)c2ccnn3cc(-c4ccccc4)nc23)CCO1 (racemic)" value_measured=7
compound=O=C(Nc1cnccc1N1CCC(F)(F)CC1)c1ccnn2cc(-c3ccccc3)nc12 value_measured=36

Attention now turns to another entry.
Prompt line: Field request: remaining at 10 min, 0.5 µM | item: CC1CN(c2ccncc2NC(=O)c2ccnn3cc(C4CC4)nc23)CCO1 (stereo unspecified)
Response line: 4
